# Experimental System: T1, cynomolgus monkey CD137 (cynomolgus monkey, UniProt Q07011 24-186 (human entry), limits assumed)
# T1 construct: Soluble analyte in the Biacore assay; also called cyno CD137
# T1 chain: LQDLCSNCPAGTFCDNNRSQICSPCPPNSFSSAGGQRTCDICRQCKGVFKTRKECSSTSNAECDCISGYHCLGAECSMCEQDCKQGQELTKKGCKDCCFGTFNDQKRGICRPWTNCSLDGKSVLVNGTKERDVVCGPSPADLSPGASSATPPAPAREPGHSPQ
# Run Description: SPR Biacore T200, IgG captured on protein A, antigen as analyte, 25 C;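 note: antigens flowed over a CM3 chip for 120 s association, KD derived from ka and kd, running buffer (ACES, NaCl, Tween20, pH 7.4) served as blank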

# Binder, koff
data = [
    ("dBBDu_186 / dBBDu_L098 (antibody, human IgG1, V domains shown, Tested as IgG (human IgG1 constant region, kappa light chain); also called dBBDu186/L098) VH: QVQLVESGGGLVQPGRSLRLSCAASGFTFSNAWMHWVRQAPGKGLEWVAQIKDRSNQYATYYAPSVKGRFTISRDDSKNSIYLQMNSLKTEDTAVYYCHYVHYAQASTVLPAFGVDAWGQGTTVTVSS VL: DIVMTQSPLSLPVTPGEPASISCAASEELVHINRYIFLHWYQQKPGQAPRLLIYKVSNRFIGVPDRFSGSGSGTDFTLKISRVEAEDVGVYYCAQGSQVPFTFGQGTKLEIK", "0.00119 s⁻¹"),
]
